B1: POU domain, class 3, transcription factor 3, residues 408 to 463; numbered along this chain, P20264 (parent)
chain: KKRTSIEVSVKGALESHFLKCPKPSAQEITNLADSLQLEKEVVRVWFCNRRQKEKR

variants of: B1; assay: abundance fitness (aPCA) (normalised: wild type 0, dead -1); higher = more abundant; growth selection in yeast, the domain comes from the species named; conditions: Homo sapiens
Consider the following variants and their measured abundance fitness readings.
result type: abundance fitness

INSERT INTO results (variant_id, value_observed) VALUES
  ('H17C', -0.201),
  ('V8E', 0.088),
  ('E54R', -0.485),
  ('K23P', -0.724),
  ('S9T', -0.051),
  ('H17A', -0.055),
  ('N49S', -0.098),
  ('F18W', -0.5),
  ('K40N', -0.118),
  ('E15W', -0.593),
  ('K1G', -0.067),
  ('K1D', -0.124),
  ('R50H', -0.668),
  ('S9C', -0.247),
  ('E28R', -0.456),
  ('E54M', -0.148),
  ('A26D', -0.004),
  ('R56G', -0.068),
  ('V8W', -0.141),
  ('S16K', 0.036),
  ('Q37F', -0.3),
  ('E54D', 0.058),
  ('V8T', 0.161),
  ('V42Y', -0.02),
  ('S16M', -0.076),
  ('K55Q', -0.132),
  ('P22V', -0.641),
  ('T4G', -0.077),
  ('H17F', -0.104),
  ('A33Q', -0.931),
  ('K55G', 0.053),
  ('L32G', -0.88),
  ('S16Q', 0.012),
  ('C21E', 0.048),
  ('E54T', -0.281),
  ('L36A', -0.906),
  ('R56D', -0.247),
  ('E28Y', -0.048),
  ('G12M', 0.161),
  ('K53S', 0.068),
  ('F47L', -0.461),
  ('K2A', -0.13),
  ('K20H', -0.279),
  ('L14G', -0.958),
  ('E41P', -0.933),
  ('P22K', -0.432),
  ('T4L', -0.093),
  ('L38Y', -0.982),
  ('E28Q', -0.145),
  ('C48V', 0.068),
  ('R51P', -0.608),
  ('H17Q', -0.134),
  ('G12V', 0.211),
  ('R51K', -0.534),
  ('Q37H', -0.034),
  ('N31Y', -0.009),
  ('C48K', -0.074),
  ('S35D', -0.158),
  ('V43I', -0.341),
  ('K40G', -0.056),
  ('E39R', -0.327),
  ('E7F', -0.263),
  ('V10I', -0.066),
  ('V10Y', -0.129),
  ('R50W', -0.883),
  ('L36F', -0.177),
  ('S35C', -0.079),
  ('E7P', 0.167),
  ('G12E', 0.111),
  ('V43L', -0.382),
  ('E54I', -0.748),
  ('L38A', -0.693),
  ('T30K', -0.044),
  ('I29R', -0.859),
  ('H17I', -0.219),
  ('F18N', -1.18),
  ('R3I', -0.023);
